List of switch fluorescence ratio values.
Tested on: ATP;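 further: ATP exposure 15 min at 22 °C before imaging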
measurement_description: switch fluorescence ratio, 500 uM ATP over buffer (Cy3 cluster intensity, sum of 5 cycles each) (fold (ratio)); higher = stronger signal-on switching upon ATP binding; sequences stand for … in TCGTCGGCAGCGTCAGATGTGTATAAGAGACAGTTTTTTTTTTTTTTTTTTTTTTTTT…TC
study_conditions: aptamer strand: ATP DNA aptamer (quencher-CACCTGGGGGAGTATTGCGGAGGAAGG + anchor), 100 nM annealed; ATP concentration: 500 uM
Please state the value as a number alone, without comment.

In the examples that follow, each entry is paired with its recorded switch fluorescence ratio.
AGTTGTTGG :: 0.982
AAATACCGCA :: 1.48
AGCGTTGGTG :: 1.03
CCGTTTTAGC :: 1.12
TGGATTGAGC :: 0.967
AATAGAGTGG :: 0.99

Here's the next entry for you.
Give the measured switch fluorescence ratio of `GGATTTGCCT` . 0.997

###

Test system: ATP;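 further: ATP exposure 15 min at 22 °C before imaging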
measurement_description: switch fluorescence ratio, 500 uM ATP over buffer (Cy3 cluster intensity, sum of 5 cycles each) (fold (ratio)); higher = stronger signal-on switching upon ATP binding; sequences stand for … in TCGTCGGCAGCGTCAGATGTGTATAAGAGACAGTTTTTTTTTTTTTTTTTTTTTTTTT…TC
study_conditions: aptamer strand: ATP DNA aptamer (quencher-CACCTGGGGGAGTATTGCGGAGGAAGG + anchor), 100 nM annealed; ATP concentration: 500 uM
assay_metric: switch fluorescence ratio
Please state the value as a number alone, without comment.

GGAGAAGGCG :: 0.994
GGGTCAAATA :: 0.982
GAGAAAGGTG :: 1.09

Here's the next entry for you.
Give the measured switch fluorescence ratio of `AGGGGGGATG` . 0.992

###

Tested on: ATP;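 further: ATP exposure 15 min at 22 °C before imaging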
measurement_description: switch fluorescence ratio, 500 uM ATP over buffer (Cy3 cluster intensity, sum of 5 cycles each) (fold (ratio)); higher = stronger signal-on switching upon ATP binding; sequences stand for … in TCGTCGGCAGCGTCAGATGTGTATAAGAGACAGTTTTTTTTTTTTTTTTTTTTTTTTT…TC
study_conditions: aptamer strand: ATP DNA aptamer (quencher-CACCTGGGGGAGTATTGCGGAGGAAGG + anchor), 100 nM annealed; ATP concentration: 500 uM
assay_metric: switch fluorescence ratio
Please state the value as a number alone, without comment.

In the examples that follow, each entry is paired with its recorded switch fluorescence ratio.
TTAACTTTCT :: 1.06
AAAGATTTGT :: 0.978
CGCATGGAGT :: 1.04
GCTAGTGCTT :: 0.956
TTTCGAGGAA :: 1.03

Give the measured switch fluorescence ratio of `GCGAGGTGGT` . 1

Please do the same for `GTTTTTGGAG` as well. 0.982

Please do the same for `AGGTCTAGTT` as well. 1

Please do the same for `ATTGTTTCCT` as well. 1.06

Please do the same for `ATATCGAGGC` as well. 0.98

Please do the same for `TAAAGGTTCG` as well. 0.962

Please do the same for `CAAGGGGGAT` as well. 1.01

###

List of switch fluorescence ratio values.
Test system: ATP;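 further: ATP exposure 15 min at 22 °C before imaging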
measurement_description: switch fluorescence ratio, 500 uM ATP over buffer (Cy3 cluster intensity, sum of 5 cycles each) (fold (ratio)); higher = stronger signal-on switching upon ATP binding; sequences stand for … in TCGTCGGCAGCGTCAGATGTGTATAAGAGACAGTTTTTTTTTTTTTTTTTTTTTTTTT…TC
study_conditions: aptamer strand: ATP DNA aptamer (quencher-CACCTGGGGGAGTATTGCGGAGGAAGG + anchor), 100 nM annealed; ATP concentration: 500 uM
Please state the value as a number alone, without comment.

In the examples that follow, each entry is paired with its recorded switch fluorescence ratio.
TTTTTTGTTG :: 0.987
ATTTTGGAGA :: 1.02
CATTCGGGGG :: 0.997
AGGGGGGCCA :: 1.02
AGGGGTGTG :: 1

Under ATP: switch fluorescence ratio value of `CTCAGACAGC` ? 1.11

Please do the same for `TATTTGTGGG` as well. 0.985

Please do the same for `CTGGTCGGCT` as well. 1.09

Please do the same for `GAGTGCGGAT` as well. 0.98

Please do the same for `ATCAATTGGT` as well. 1.01

###

System: ATP;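 further: ATP exposure 15 min at 22 °C before imaging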
measurement_description: switch fluorescence ratio, 500 uM ATP over buffer (Cy3 cluster intensity, sum of 5 cycles each) (fold (ratio)); higher = stronger signal-on switching upon ATP binding; sequences stand for … in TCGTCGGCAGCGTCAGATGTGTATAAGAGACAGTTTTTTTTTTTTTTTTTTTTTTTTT…TC
study_conditions: aptamer strand: ATP DNA aptamer (quencher-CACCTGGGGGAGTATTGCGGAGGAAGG + anchor), 100 nM annealed; ATP concentration: 500 uM
List of switch fluorescence ratio values.
Please state the value as a number alone, without comment.

In the examples that follow, each entry is paired with its recorded switch fluorescence ratio.
GAGTGGTAGG :: 1.01
AATTACGGGT :: 1
TTGGGGAA :: 0.985
CTTCCGTTTT :: 1.28
ACGTTACTCA :: 1.5

Give the measured switch fluorescence ratio of `AAAGAAGGGC` . 0.938

Please do the same for `TTGCATGGGA` as well. 0.992

Please do the same for `AGGTTGAGGT` as well. 1.08

Please do the same for `GCGATATCTT` as well. 1.04

Please do the same for `AGTGTAGCTT` as well. 1.07

Please do the same for `GACGGATTTA` as well. 0.988

###

Test system: ATP;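 further: ATP exposure 15 min at 22 °C before imaging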
measurement_description: switch fluorescence ratio, 500 uM ATP over buffer (Cy3 cluster intensity, sum of 5 cycles each) (fold (ratio)); higher = stronger signal-on switching upon ATP binding; sequences stand for … in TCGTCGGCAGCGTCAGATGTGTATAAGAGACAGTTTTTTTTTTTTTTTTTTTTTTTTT…TC
study_conditions: aptamer strand: ATP DNA aptamer (quencher-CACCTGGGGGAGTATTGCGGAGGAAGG + anchor), 100 nM annealed; ATP concentration: 500 uM
Would you please tag the item Fulfilled when its switch fluorescence ratio is 1 or above, and Not fulfilled when it is below?

Consider the worked cases shown below.
ACGTGAGTTT :: Not fulfilled
GAGAATCGGT :: Fulfilled
CGTTAAGCTT :: Fulfilled
GTGGGTACCA :: Not fulfilled

Would you kindly look at the next entry?
Form field: switch fluorescence ratio at least 1? Entry: `CTTTGGAGTG` Fulfilled

###

Tested on: ATP;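 further: ATP exposure 15 min at 22 °C before imaging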
measurement_description: switch fluorescence ratio, 500 uM ATP over buffer (Cy3 cluster intensity, sum of 5 cycles each) (fold (ratio)); higher = stronger signal-on switching upon ATP binding; sequences stand for … in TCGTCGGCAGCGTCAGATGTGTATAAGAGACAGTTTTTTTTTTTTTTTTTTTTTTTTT…TC
study_conditions: aptamer strand: ATP DNA aptamer (quencher-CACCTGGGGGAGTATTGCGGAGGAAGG + anchor), 100 nM annealed; ATP concentration: 500 uM
Would you please tag the item rule met when its switch fluorescence ratio is 1 or above, and rule not met when it is below?

GCTTTTTAAA :: rule not met

Would you kindly look at the next entry?
Form field: switch fluorescence ratio at least 1? Entry: `CGAAAAAGAT` rule met

###

List of switch fluorescence ratio values.
System: ATP;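 further: ATP exposure 15 min at 22 °C before imaging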
measurement_description: switch fluorescence ratio, 500 uM ATP over buffer (Cy3 cluster intensity, sum of 5 cycles each) (fold (ratio)); higher = stronger signal-on switching upon ATP binding; sequences stand for … in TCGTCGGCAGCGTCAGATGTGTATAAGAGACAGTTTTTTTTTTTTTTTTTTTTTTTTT…TC
study_conditions: aptamer strand: ATP DNA aptamer (quencher-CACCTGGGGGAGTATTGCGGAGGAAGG + anchor), 100 nM annealed; ATP concentration: 500 uM
Please state the value as a number alone, without comment.

TATTTAGGAA :: 0.95

Give the measured switch fluorescence ratio of `AACTTTATTT` . 0.992

Please do the same for `GCTATATGTG` as well. 0.98

Please do the same for `ATGGACTAGG` as well. 1.02

Please do the same for `GTGAGATGTA` as well. 0.991

Please do the same for `AAGAAGGAAC` as well. 1

Please do the same for `AGATGTGTAG` as well. 1.04

Please do the same for `ATGATGGGGG` as well. 0.984

Please do the same for `ACCGGGCCCT` as well. 1.01

Please do the same for `AAATGAATTT` as well. 0.976

Please do the same for `CGGGAATCCT` as well. 1.11

###

Tested on: ATP;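 further: ATP exposure 15 min at 22 °C before imaging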
measurement_description: switch fluorescence ratio, 500 uM ATP over buffer (Cy3 cluster intensity, sum of 5 cycles each) (fold (ratio)); higher = stronger signal-on switching upon ATP binding; sequences stand for … in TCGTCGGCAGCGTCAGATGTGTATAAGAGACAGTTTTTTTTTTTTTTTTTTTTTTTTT…TC
study_conditions: aptamer strand: ATP DNA aptamer (quencher-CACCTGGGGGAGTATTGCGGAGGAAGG + anchor), 100 nM annealed; ATP concentration: 500 uM
assay_metric: switch fluorescence ratio
Please state the value as a number alone, without comment.

In the examples that follow, each entry is paired with its recorded switch fluorescence ratio.
TGGTACGTAG :: 1.03
TATTGTAGCT :: 1.01
CCCGGGTAAG :: 1.03
GGATCTTTTT :: 1.03
TATTTTTTCT :: 0.994
ATGGGCTATA :: 1.03

Under ATP: switch fluorescence ratio value of `TACGTGGGGG` ? 1.02
